System: Escherichia coli TOP10
test: shrunken log2 fold change of peptide-encoding DNA abundance (4.5 h post-induction vs induction); higher = less antimicrobial activity (less host growth inhibition)
condition-set: time post-induction: 4.5 h; library: site-saturation at positions 5, 18, 19, 20
Classify as follows. Reported shrunken log2 fold change greater than or equal to -0.04: Y. Reported shrunken log2 fold change below: N.

# example entries with known answers
RRIRCRPPRLPRPRPRPNQGPRP; N
RRIRHRPPRLPRPRPRPDAAPRP; Y

Note: attention shifts to another entry.
QUERY: Entry RRIRMRPPRLPRPRPRPAFNPRP : is its shrunken log2 fold change no less than -0.04?
RESULT: Y

---

System: Escherichia coli TOP10
test: shrunken log2 fold change of peptide-encoding DNA abundance (4.5 h post-induction vs induction); higher = less antimicrobial activity (less host growth inhibition)
condition-set: time post-induction: 4.5 h; library: site-saturation at positions 5, 18, 19, 20
Known shrunken log2 fold change of a selection of sequences
// print number alone

Examples with their reported shrunken log2 fold change follow.
RRIRLRPPRLPRPRPRPPHNPRP; 0.504
RRIRRRPPRLPRPRPRPMMIPRP; -0.185
RRIRCRPPRLPRPRPRPHNGPRP; -1.03
RRIRARPPRLPRPRPRPATVPRP; 0.214
RRIRGRPPRLPRPRPRPHTRPRP; 0.559

QUERY: Query: shrunken log2 fold change; subject: RRIRRRPPRLPRPRPRPMMAPRP
RESULT: 0.142

---

Entries and their shrunken log2 fold change
Tested on: Escherichia coli TOP10
test: shrunken log2 fold change of peptide-encoding DNA abundance (4.5 h post-induction vs induction); higher = less antimicrobial activity (less host growth inhibition)
condition-set: time post-induction: 4.5 h; library: site-saturation at positions 5, 18, 19, 20
API note: the answer field is a bare number with no unit suffix.

Look over these answered cases.
RRIRHRPPRLPRPRPRPDHFPRP; -0.169
RRIRYRPPRLPRPRPRPHTAPRP; -0.57
RRIRFRPPRLPRPRPRPNVKPRP; -0.574
RRIRIRPPRLPRPRPRPAYCPRP; -0.23
RRIRARPPRLPRPRPRPGVCPRP; 0.571

QUERY: Please provide the recorded shrunken log2 fold change for RRIRNRPPRLPRPRPRPLPWPRP , tested on Escherichia coli TOP10.
RESULT: 0.00924

QUERY: Same again, this time with RRIRTRPPRLPRPRPRPASFPRP
RESULT: 0.133

---

System: Escherichia coli TOP10
test: shrunken log2 fold change of peptide-encoding DNA abundance (4.5 h post-induction vs induction); higher = less antimicrobial activity (less host growth inhibition)
condition-set: time post-induction: 4.5 h; library: site-saturation at positions 5, 18, 19, 20
Where shrunken log2 fold change equals or exceeds -0.2, the correct label is class 1; where it does not, the label is class 0.

RRIRKRPPRLPRPRPRPSRNPRP; class 1
RRIRVRPPRLPRPRPRPELIPRP; class 1
RRIRQRPPRLPRPRPRPDDEPRP; class 1
RRIRARPPRLPRPRPRPYLEPRP; class 1
RRIRTRPPRLPRPRPRPAANPRP; class 1
RRIRTRPPRLPRPRPRPHTKPRP; class 1
RRIRARPPRLPRPRPRPNQYPRP; class 0
RRIRIRPPRLPRPRPRPLDHPRP; class 0
RRIRYRPPRLPRPRPRPIFRPRP; class 0
RRIRVRPPRLPRPRPRPETWPRP; class 1

QUERY: Answer whether shrunken log2 fold change of RRIRYRPPRLPRPRPRPCAHPRP is greater than or equal to -0.2.
RESULT: class 1

QUERY: Note, next up: RRIRKRPPRLPRPRPRPYIHPRP
RESULT: class 0

QUERY: Okay, and RRIRCRPPRLPRPRPRPSYKPRP ?
RESULT: class 0

---

Tested on: Escherichia coli TOP10
test: shrunken log2 fold change of peptide-encoding DNA abundance (4.5 h post-induction vs induction); higher = less antimicrobial activity (less host growth inhibition)
condition-set: time post-induction: 4.5 h; library: site-saturation at positions 5, 18, 19, 20
Kind request: treat -0.1 as inclusive, so shrunken log2 fold change at -0.1 or higher is Y, anything lower is N.

RRIRKRPPRLPRPRPRPEWPPRP; Y

QUERY: State whether the measured shrunken log2 fold change reaches -0.1, counting equality as reaching it, for RRIRKRPPRLPRPRPRPNNMPRP
RESULT: N

QUERY: Entry RRIRRRPPRLPRPRPRPAFNPRP please
RESULT: Y

---

Measured shrunken log2 fold change of individual entries
System: Escherichia coli TOP10
test: shrunken log2 fold change of peptide-encoding DNA abundance (4.5 h post-induction vs induction); higher = less antimicrobial activity (less host growth inhibition)
condition-set: time post-induction: 4.5 h; library: site-saturation at positions 5, 18, 19, 20
// no unit string in output, number only

QUERY: Given RRIRMRPPRLPRPRPRPGIKPRP , state its recorded shrunken log2 fold change.
RESULT: 0.274

QUERY: How about this sequence: RRIRDRPPRLPRPRPRPRLKPRP
RESULT: 0.411

QUERY: Would you kindly repeat that for RRIRQRPPRLPRPRPRPVYHPRP ?
RESULT: -0.83

QUERY: What about this sequence? RRIRARPPRLPRPRPRPGKNPRP
RESULT: 0.124

QUERY: And for RRIRSRPPRLPRPRPRPEFHPRP ?
RESULT: -0.162

---

Catalogue of shrunken log2 fold change readings, one per entry.
System: Escherichia coli TOP10
test: shrunken log2 fold change of peptide-encoding DNA abundance (4.5 h post-induction vs induction); higher = less antimicrobial activity (less host growth inhibition)
condition-set: time post-induction: 4.5 h; library: site-saturation at positions 5, 18, 19, 20
Kindly provide the number alone.

RRIRSRPPRLPRPRPRPQMDPRP; -0.0665

QUERY: State the recorded shrunken log2 fold change for this entry: RRIRYRPPRLPRPRPRPHLYPRP
RESULT: -1.35

QUERY: Then RRIRCRPPRLPRPRPRPYKMPRP ?
RESULT: -1.66

QUERY: Same for RRIRQRPPRLPRPRPRPFRGPRP
RESULT: 0.113

QUERY: Field entry: RRIRVRPPRLPRPRPRPDKNPRP
RESULT: -0.12

QUERY: Okay, and RRIRHRPPRLPRPRPRPHGKPRP ?
RESULT: -0.038

QUERY: Moving on to RRIRGRPPRLPRPRPRPMCTPRP
RESULT: 2.37

---

Test system: Escherichia coli TOP10
test: shrunken log2 fold change of peptide-encoding DNA abundance (4.5 h post-induction vs induction); higher = less antimicrobial activity (less host growth inhibition)
condition-set: time post-induction: 4.5 h; library: site-saturation at positions 5, 18, 19, 20
Overview of reported shrunken log2 fold change across a group of sequences:
Respond using a number only.

RRIRARPPRLPRPRPRPKLKPRP; 0.272

QUERY: Consider the sequence RRIRTRPPRLPRPRPRPHMGPRP and give its measured shrunken log2 fold change.
RESULT: -0.00538

QUERY: Next record, please: RRIRNRPPRLPRPRPRPRFLPRP
RESULT: 0.0562

QUERY: Quick one: RRIRVRPPRLPRPRPRPKFQPRP
RESULT: -0.274

QUERY: Same again, this time with RRIRPRPPRLPRPRPRPTAAPRP
RESULT: 0.227

QUERY: What about this sequence? RRIRARPPRLPRPRPRPMRHPRP
RESULT: 0.38

---

Test system: Escherichia coli TOP10
test: shrunken log2 fold change of peptide-encoding DNA abundance (4.5 h post-induction vs induction); higher = less antimicrobial activity (less host growth inhibition)
condition-set: time post-induction: 4.5 h; library: site-saturation at positions 5, 18, 19, 20
property-name: shrunken log2 fold change
# respond with the number and nothing more

Below, 5 sequences whose answers are already recorded.
RRIRSRPPRLPRPRPRPDQAPRP; -0.107
RRIRQRPPRLPRPRPRPFWFPRP; 0.0862
RRIRNRPPRLPRPRPRPCHSPRP; -0.539
RRIRHRPPRLPRPRPRPMGQPRP; -0.239
RRIRLRPPRLPRPRPRPTLWPRP; 0.284

QUERY: # lookup: shrunken log2 fold change of RRIRCRPPRLPRPRPRPFWDPRP
RESULT: 0.00555

QUERY: Moving on to the next sequence: RRIRQRPPRLPRPRPRPCQSPRP
RESULT: -0.0019

QUERY: Would you kindly repeat that for RRIRWRPPRLPRPRPRPHYYPRP ?
RESULT: -0.581

---

System: Escherichia coli TOP10;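 note: peptides expressed intracellularly from a pBAD plasmid library in pooled LB shake-flask culture, induced with 0.3% L-arabinose, DNA abundance read by NGS, three biological replicates, DESeq2 with apeglm shrinkage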
test: shrunken log2 fold change of peptide-encoding DNA abundance (4.5 h post-induction vs induction); higher = less antimicrobial activity (less host growth inhibition)
condition-set: time post-induction: 4.5 h; library: site-saturation at positions 5, 18, 19, 20
shrunken log2 fold change for assorted sequences
Field format: numeric only.

Some solved cases for reference:
RRIRQRPPRLPRPRPRPHYQPRP; -0.0204
RRIRVRPPRLPRPRPRPGQKPRP; 0.00253
RRIRSRPPRLPRPRPRPASNPRP; -0.101
RRIRKRPPRLPRPRPRPGWTPRP; 0.438
RRIRSRPPRLPRPRPRPVKQPRP; 0.0733
RRIRLRPPRLPRPRPRPTPYPRP; -0.00235
RRIRIRPPRLPRPRPRPYEMPRP; -0.00062
RRIRCRPPRLPRPRPRPFAMPRP; -0.495

QUERY: Can you share its shrunken log2 fold change? I mean this sequence: RRIRTRPPRLPRPRPRPWCKPRP
RESULT: -0.202

QUERY: Same again, this time with RRIRQRPPRLPRPRPRPPHQPRP
RESULT: 0.363

Reference source for all entries: the supplement of paper PMC9112550
